Species on record: Rattus norvegicus
Test summary: DrugMatrix - Regimen: Daily Repeat
Format: toxicity, organism-based, Sprague-Dawley
Set-up: regimen Daily Repeat, gender Male, age 6-8 weeks
Recorded conditions: in vivo, po, 0 mg/kg, 120 h, tissue Blood, route oral GAVAGE, dose level Control, time 5 day, vehicle .5 % CMC
Quantity name: ABSOLUTE EOSINOPHIL (CELLS/uL)
Report only the number, with the unit CELLS/uL understood.

I would be grateful if you could share the reported ABSOLUTE EOSINOPHIL for CN(C)C(=O)C(CCN1CCC(O)(c2ccc(Cl)cc2)CC1)(c1ccccc1)c1ccccc1 [LOPERAMIDE] . 138.17

What about this compound? `C[C@H]1[C@H](NC(=O)/C(=N\OC(C)(C)C(=O)O)c2csc(N)n2)C(=O)N1S(=O)(=O)O` 148.67

And `COc1ccccc1[N+](=O)[O-]` ? 18.5

How about this compound: `COc1cc(OC)c(C(=O)CCCN2CCCC2)c(OC)c1` 20.5

Same thing, different compound: CCC1=C(C)CN(C(=O)NCCc2ccc(S(=O)(=O)NC(=O)N[C@H]3CC[C@H](C)CC3)cc2)C1=O [GLIMEPIRIDE] 138.17

And what about the compound `C[C@@H]1O[C@@H](O[C@H]2C[C@@H](O)[C@]3(CO)[C@H]4[C@H](O)C[C@]5(C)[C@@H](C6=CC(=O)OC6)CC[C@]5(O)[C@@H]4CC[C@]3(O)C2)[C@H](O)[C@H](O)[C@H]1O` ? 31

Moving on to the next compound: `CCOc1nc2cccc(C(=O)O)c2n1Cc1ccc(-c2ccccc2-c2nnn[nH]2)cc1` 67.33

* * *

Species on record: Rattus norvegicus
Test summary: DrugMatrix - Regimen: Daily Repeat
Assay type: toxicity, organism-based, Sprague-Dawley
Set-up: regimen Daily Repeat, gender Male, age 6-8 weeks
Recorded conditions: in vivo, po, 0 mg/kg, 72 h, tissue Plasma, route oral GAVAGE, dose level Control, time 3 day, vehicle .5 % CMC
Quantity name: CREATINE PHOSPHOKINASE (u/L)
The response must be a number in u/L with no trailing unit.

What value of CREATINE PHOSPHOKINASE has been recorded for this entry: `C[C@@](Cc1ccc(O)c(O)c1)(NN)C(=O)O.O` 331.5

// repeat for CCCNC(=O)NS(=O)(=O)c1ccc(Cl)cc1 [CHLORPROPAMIDE] and report 149.17

Now give it for `CCCCC1=NC2(CCCC2)C(=O)N1Cc1ccc(-c2ccccc2-c2nnn[nH]2)cc1` too. 320.83

Next molecule up: CN(C)C(=O)C(CCN1CCC(O)(c2ccc(Cl)cc2)CC1)(c1ccccc1)c1ccccc1 [LOPERAMIDE] 1325.83

For `C[C@H]1[C@H](NC(=O)/C(=N\OC(C)(C)C(=O)O)c2csc(N)n2)C(=O)N1S(=O)(=O)O` then? 331.5

// repeat for `C#C[C@]1(O)CC[C@H]2[C@@H]3CCC4=CC(=O)CC[C@]4(C)[C@H]3CC[C@@]21C` and report 156.17

// repeat for `CN1C(=O)CN=C(c2ccccc2)c2cc([N+](=O)[O-])ccc21` and report 123.5

Again, but for `CN1CCN(C2=Nc3cc(Cl)ccc3Nc3ccccc32)CC1` 149.17

Consider next the molecule `C[C@]12CC[C@@H]3c4ccc(O)cc4CC[C@H]3[C@@H]1C[C@@H](O)[C@@H]2O` in the same way. 788

Would you mind doing CCC1=C(C)CN(C(=O)NCCc2ccc(S(=O)(=O)NC(=O)N[C@H]3CC[C@H](C)CC3)cc2)C1=O [GLIMEPIRIDE] as well? 1325.83

One more molecule: CCn1cc(C(=O)O)c(=O)c2cc(F)c(N3CCNC(C)C3)c(F)c21 (stereo unspecified) 107.67

Now the molecule `C[C@@H]1O[C@@H](O[C@H]2C[C@@H](O)[C@]3(CO)[C@H]4[C@H](O)C[C@]5(C)[C@@H](C6=CC(=O)OC6)CC[C@]5(O)[C@@H]4CC[C@]3(O)C2)[C@H](O)[C@H](O)[C@H]1O` 379.67

Now consider `CCOc1nc2cccc(C(=O)O)c2n1Cc1ccc(-c2ccccc2-c2nnn[nH]2)cc1` and answer again. 485.67

Moving on to the next molecule: NC(=O)N1c2ccccc2CC(=O)c2ccccc21 [OXCARBAZEPINE] 258.67

Same thing, different molecule: `COc1ccc2c(c1OC)C(=O)O[C@@H]2[C@H]1c2c(cc3c(c2OC)OCO3)CCN1C` 156.17

Can you handle `COc1cc(OC)c(C(=O)CCCN2CCCC2)c(OC)c1` next? 464.83

* * *

Organism: Rattus norvegicus
Test summary: DrugMatrix - Regimen: Daily Repeat
Assay type: toxicity, organism-based, Sprague-Dawley
Set-up: regimen Daily Repeat, gender Male, age 6-8 weeks
Recorded conditions: in vivo, ip, 0 mg/kg, […], tissue Blood, route intraperitoneal, dose level Control, time 28 day, vehicle 100 % SALINE
Can you tell me ABSOLUTE LYMPHOCYTE for the items I'm about to list?
The response must be a number in cells/µL with no trailing unit.

Any idea what ABSOLUTE LYMPHOCYTE was measured for COBALTOUS CHLORIDE ? 9910

And `TRANSPLATIN` ? 9910

* * *

Species on record: Rattus norvegicus
Test summary: DrugMatrix - Regimen: Daily Repeat
Type: toxicity, organism-based, Sprague-Dawley
Parameters: regimen Daily Repeat, gender Male, age 6-8 weeks
Recorded conditions: in vivo, po, 0 mg/kg, 120 h, tissue Blood, route oral GAVAGE, dose level Control, time 5 day, vehicle 100 % WATER
Quantity name: MEAN CORPUSCULAR VOLUME

Please give the measured MEAN CORPUSCULAR VOLUME for this compound: `C#Cc1cccc(Nc2ncnc3cc(OCCOC)c(OCCOC)cc23)c1` 67.62 fL

Here is the next compound: `CN(C)CCC=C1c2ccccc2CCc2ccccc21` 63.23 fL

Please answer likewise for `CCN(C(C)=O)c1cccc(-c2ccnc3c(C#N)cnn23)c1` 63.23 fL

Also `CCN(CC)CCOC(=O)C1(C2CCCCC2)CCCCC1` , if possible. 60.66 fL

Also CNC1=Nc2ccc(Cl)cc2C(c2ccccc2)=[N+]([O-])C1 [CHLORDIAZEPOXIDE] ? 62.68 fL

Further, for CN(C)C(=O)Oc1cccc([N+](C)(C)C)c1.[Br-] [NEOSTIGMINE BROMIDE] ? 63.12 fL

Likewise for O=c1[nH]c(=O)n(C2CCCO2)cc1F (stereo not given) ? 62.55 fL

And what about the compound `NC12CC3CC(CC(C3)C1)C2` ? 63.23 fL

What would you report for NC(=O)c1cccnc1 [NIACINAMIDE] ? 63.72 fL

Also CCCC(C)C1(CC)C(=O)NC(=O)NC1=O (stereo not given) , if possible. 63.12 fL

* * *

Kindly supply the reported CHLORIDE values for the records listed here.
Species on record: Rattus norvegicus
Test summary: DrugMatrix - Regimen: Daily Repeat
Type: toxicity, organism-based, Sprague-Dawley
Set-up: regimen Daily Repeat, gender Male, age 6-8 weeks
Recorded conditions: in vivo, po, 0 mg/kg, 120 h, tissue Plasma, route oral GAVAGE, dose level Control, time 5 day, vehicle .5 % CMC
Just the number please, in MEQ/L, no unit attached.

Need CHLORIDE of `COc1ccccc1[N+](=O)[O-]` , thanks. 100

Try this molecule too: `C[C@@](Cc1ccc(O)c(O)c1)(NN)C(=O)O.O` 101

Same thing, different molecule: `CN1CCN(C2=Nc3cc(Cl)ccc3Nc3ccccc32)CC1` 105.67

What about CCn1cc(C(=O)O)c(=O)c2cc(F)c(N3CCNC(C)C3)c(F)c21 (stereo not drawn) ? 108.17

Could you do the same for `C[C@]12CC[C@@H]3c4ccc(O)cc4CC[C@H]3[C@@H]1C[C@@H](O)[C@@H]2O` , please? 101

Now consider CN(C)C(=O)C(CCN1CCC(O)(c2ccc(Cl)cc2)CC1)(c1ccccc1)c1ccccc1 [LOPERAMIDE] and answer again. 101.5

Now try `C[C@H]1[C@H](NC(=O)/C(=N\OC(C)(C)C(=O)O)c2csc(N)n2)C(=O)N1S(=O)(=O)O` . 101

And `CCCCC1=NC2(CCCC2)C(=O)N1Cc1ccc(-c2ccccc2-c2nnn[nH]2)cc1` ? 99

Now try `COc1ccc2c(c1OC)C(=O)O[C@@H]2[C@H]1c2c(cc3c(c2OC)OCO3)CCN1C` . 107.67

Would you mind doing `C#C[C@]1(O)CC[C@H]2[C@@H]3CCC4=CC(=O)CC[C@]4(C)[C@H]3CC[C@@]21C` as well? 107.67

Likewise for NC(=O)N1c2ccccc2CC(=O)c2ccccc21 [OXCARBAZEPINE] ? 99

Please do the same for `CN1C(=O)CN=C(c2ccccc2)c2cc([N+](=O)[O-])ccc21` as well. 103.17

Now give it for CCCNC(=O)NS(=O)(=O)c1ccc(Cl)cc1 [CHLORPROPAMIDE] too. 105.67

Now the same for `CCOc1nc2cccc(C(=O)O)c2n1Cc1ccc(-c2ccccc2-c2nnn[nH]2)cc1` 102

Next: `CN(C)CCN(Cc1cccs1)c1ccccn1` 107

Could you do the same for `COc1cc(OC)c(C(=O)CCCN2CCCC2)c(OC)c1` , please? 100.67

Entry `C[C@@H]1O[C@@H](O[C@H]2C[C@@H](O)[C@]3(CO)[C@H]4[C@H](O)C[C@]5(C)[C@@H](C6=CC(=O)OC6)CC[C@]5(O)[C@@H]4CC[C@]3(O)C2)[C@H](O)[C@H](O)[C@H]1O` please 100

Then CCC1=C(C)CN(C(=O)NCCc2ccc(S(=O)(=O)NC(=O)N[C@H]3CC[C@H](C)CC3)cc2)C1=O [GLIMEPIRIDE] ? 101.5

Data credit: ChEMBL document CHEMBL3885881
